- assayed-target: recombinant human mPGES-1 (Homo sapiens)
- Construct: made in house; host or cells: Rosetta E. coli (microsomal/membrane fraction)
- experiment: mPGES-1 inhibition, HTRF detection of PGE2
- Assay type: biochemical
quantity-name: inhibition at 10 µM (%)

* COc1nc2c(cc1C(=O)NCc1ncccc1C(F)(F)F)nc(Nc1c(Cl)cccc1Cl)n2C | 100
* Cn1c(Nc2c(Cl)cccc2Cl)nc2cc(C(=O)NC3CCCC(C)(C)C3)cnc21 (centres unmarked) | 99
* O=C(N[C@H]1CC[C@H](C(F)(F)F)CC1)c1cnc2[nH]c(Nc3c(Cl)cccc3Cl)nc2c1 | 100
* CCOc1nc2[nH]c(Nc3c(Cl)cncc3Cl)nc2cc1C(=O)Nc1ccc(Br)cc1 | 93
* COCCOc1nc2[nH]c(Nc3c(Cl)cncc3Cl)nc2cc1C(=O)NCc1ccccc1C(F)(F)F | 98
* CN(C)CCOc1nc2c(cc1C(=O)N[C@H]1CC[C@H](C(F)(F)F)CC1)nc(Nc1c(Cl)cc(F)cc1Cl)n2C | 92
* Cn1c(Nc2c(Cl)cc(F)cc2Cl)nc2cc(C(=O)NCc3ccccc3C(F)(F)F)c(OCC(F)F)nc21 | 100
* CCCCC[C@@H](C)NC(=O)c1cnc2c(c1)nc(Nc1c(Cl)cccc1Cl)n2C | 98

----------
- assayed-target: recombinant human mPGES-1 (Homo sapiens)
- Construct: made in house; host or cells: Rosetta E. coli (microsomal/membrane fraction)
- Sequence (O14684 1-152): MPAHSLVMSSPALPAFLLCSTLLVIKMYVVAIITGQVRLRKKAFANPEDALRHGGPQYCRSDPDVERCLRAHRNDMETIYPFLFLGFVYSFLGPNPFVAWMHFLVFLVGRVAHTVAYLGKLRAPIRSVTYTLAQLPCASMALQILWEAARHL
- experiment: mPGES-1 inhibition, HTRF detection of PGE2
- Format: biochemical
- Procedure: Microsomes from Rosetta E. coli bacteria expressing recombinant human mPGES-1 is dissolved in 0.1 M KPi pH 7.4 buffer containing 2.5 mM GSH. 50 μl of the enzyme is subsequently dispensed in a 384-well plate. […] After over night incubation the fluorescence is measured by the use of an appropriate microplate reader. […] The extent of the specific FRET is measured as a ratio of the emission intensity at 665 nm vs. that at 620 nm. […]
quantity-name: inhibition at 1 µM (%)

* O=C(Nc1ccc(Br)cc1)c1cc2nc(Nc3ccccc3C(F)(F)F)[nH]c2nc1OCC(F)F [Example 775] | 95
* O=C(Nc1ccc(Br)cc1)c1cc2nc(Nc3c(F)cccc3C(F)(F)F)[nH]c2nc1OCC(F)F [Example 774] | 100
* Cn1c(Nc2ccccc2C(F)(F)F)nc2cc(C(=O)Nc3ccc(Br)cc3)c(OCC(F)F)nc21 [Example 772] | 100
* Cn1c(Nc2c(F)cccc2C(F)(F)F)nc2cc(C(=O)Nc3ccc(Br)cc3)c(OCC(F)F)nc21 [Example 771] | 100
* Cn1c(Nc2c(F)cccc2C(F)(F)F)nc2cc(C(=O)N[C@H]3CC[C@H](C(F)(F)F)CC3)c(OCC(F)F)nc21 [Example 780] | 100
* CC(=O)N(C)CCOc1nc2c(cc1C(=O)NCC(F)(F)C(F)(F)C(F)(F)C(F)(F)F)nc(Nc1c(Cl)cncc1Cl)n2C [Example 811] | 94
* Cn1c(Nc2c(Cl)cccc2C(F)(F)F)nc2cc(C(=O)N[C@H]3CC[C@H](C(F)(F)F)CC3)c(OCC(F)F)nc21 [Example 777] | 98
* O=C(Nc1ccc(Br)cc1)c1cc2nc(Nc3c(F)cccc3Cl)[nH]c2nc1OCC(F)F [Example 776] | 100
* Cn1c(Nc2c(Cl)cnc(Cl)c2Cl)nc2cc(C(=O)N[C@H]3CC[C@H](C(F)(F)F)CC3)c(OCC(F)F)nc21 [Example 779] | 96
* O=C(N[C@H]1CC[C@H](C(F)(F)F)CC1)c1cc2nc(Nc3c(Cl)cccc3C(F)(F)F)[nH]c2nc1OCC(F)F [Example 778] | 98
* O=C(N[C@H]1CC[C@H](C(F)(F)F)CC1)c1cc2nc(Nc3c(F)cccc3C(F)(F)F)[nH]c2nc1OCC(F)F [Example 781] | 99
* Cn1c(Nc2c(F)cccc2Cl)nc2cc(C(=O)Nc3ccc(Br)cc3)c(OCC(F)F)nc21 [Example 773] | 100
